Would you kindly list growth inhibition for each of these compounds?
- protocol-details: NCI Yeast Anticancer Drug Screen. Data for the rad50 strain (AID 155);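 note: 0% = growth of vehicle-only cultures of the same strain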
- settings: S. cerevisiae rad50 strain growth inhibition; at 50.0 µM; active compounds read high
About 79,000 compounds went through this panel and 15% of them were active in at least one assay; those are over-represented in the sample as a whole.
Numeric only. Scale: %

// growth inhibition value for Cc1nc(N=C(N)N)nc2ccccc12 : 3.4

// growth inhibition value for CC/C=C\C/C=C\C/C=C\CCCCCCCC(=O)OC(COC(=O)CCCCCCCCCCCCCCCCC)COC1OC(CO)C(O)C(O)C1O (configuration not stated) : 38.4

// growth inhibition value for Cc1ccc(-n2cc(-c3ccc(Cl)cc3)c3c2N=CN2NC(c4cccs4)=NC32)cc1 (configuration not stated) : -32.8

// growth inhibition value for Nc1nc(NCc2ccccc2)cc(=O)[nH]1 : 3.35

// growth inhibition value for COC(=O)C(N)Cc1ccc(OC)cc1 (configuration not stated) : -4.95

// growth inhibition value for CC1(c2cccc(N)c2)OCCO1 : 7.4

// growth inhibition value for O=C(Nc1cc(-c2ccccc2)nn1-c1ccccc1)c1ccc(Cl)cc1 : -16.4

// growth inhibition value for CCCC(C)c1ccc(C(=O)O)cc1 (configuration not stated) : 10.2

// growth inhibition value for CC1=CC(C)(C)NC(=S)N1CCO : 1.95

// growth inhibition value for Cc1ccnc2c1NC(=O)c1cccnc1N2C1CC1 : 2.35

// growth inhibition value for COc1ccc2c(c1)OCCN(C)OC2c1cccc(Cl)c1 (configuration not stated) : -4.55

// growth inhibition value for COc1ccc(C(=O)C(C(=O)CCC(=O)Nc2cccc(Cl)c2)c2ccc(OC)cc2)cc1 (configuration not stated) : -25.1

// growth inhibition value for Cc1cnc(Cl)[nH]1 (tested in a mixture with another compound) : 2.7

// growth inhibition value for Nc1nc(-c2ccccc2)nc2[nH]ncc12 : -5.45

// growth inhibition value for COC(=O)C(c1ccccc1)S(=O)(=O)c1ccccc1 (configuration not stated) : -2.75

// growth inhibition value for CC(C)C(=O)OCc1ccccc1 : 0.95

// growth inhibition value for COC(=O)N/N=C/c1ccc(NC(C)=O)cc1 : 7.8

// growth inhibition value for [N-]=[N+]=Nc1ccccc1-c1ccc([N+](=O)[O-])cc1 : -12.9

// growth inhibition value for CCOCCOCCOc1c(Cl)cc(Cl)cc1Cl : -6.65

// growth inhibition value for C/C=C/C(=O)Nc1cc(C(F)(F)F)ccc1Cl : 26.6

// growth inhibition value for O=C(CCCCC(=O)Nc1ccc2[nH]c3ccccc3c(=O)c2c1)Nc1ccc2[nH]c3ccccc3c(=O)c2c1 : 0.35

// growth inhibition value for NC(=O)c1ccc2c(ccc3ccccc32)c1 : 48.5

// growth inhibition value for N#CC(=Nc1ccccc1)c1cccc(Br)c1 : 34.5

// growth inhibition value for CCN(CC)CCC(=O)c1cnc(-c2ccccc2)nc1C : 7.35

// growth inhibition value for N#Cc1cccc(NC(=O)c2ccc(C(=O)O)c(C(=O)c3ccc(C(=O)O)c(C(=O)Nc4cccc(C#N)c4)c3)c2)c1 : -18.6

// growth inhibition value for N#Cc1c(-c2ccccc2)cc(-c2cccs2)c(C#N)c1N : 4.35

// growth inhibition value for COc1cc(Br)cc(OC)c1Oc1cc(OC)c(OC)c(OC)c1Br : 45.8

// growth inhibition value for O=c1[nH]c2nc3ccccc3c(=O)n2/c1=C/c1ccc(O)cc1 : 9.6

// growth inhibition value for CCOC(=O)/C(=C/c1ccc(N(CCC#N)CCC#N)cc1C)NC(=O)/C=C/c1ccccc1 : -2.25

// growth inhibition value for O=C1C=C2SCCN2C(=O)C1 : -5.9

// growth inhibition value for Cc1cc2nc(-c3ccccc3O)[nH]c2cc1C : -14.2

// growth inhibition value for CS/C(c1ccccc1)=[N+](/C)[O-] : 42.6
